Measured IC50, listed per entry.
- System: HeLa S3 cells
- TEST_METHOD_NOTES: HeLa Cell Growth Inhibition Activity (HeLa S3, MTT)
- Assay type: cell-based
- STATED_CONDITIONS: Homo sapiens, 72 hours exposure
Could you give me the number in ng/mL? Just the number is fine.

As a guide, the following entries are already answered.
COC(=O)c1c(C(F)(F)F)[nH]c2c(O)cc3c(c12)[C@H](CCl)CN3C(=O)/C=C/c1ccc(-c2ccc(/C=C/C(=O)N3C[C@@H](CCl)c4c3cc(O)c3[nH]c(C(F)(F)F)c(C(=O)OC)c43)cn2)nc1 = 0.0198
COC(=O)c1c(C(F)(F)F)[nH]c2c(O)cc3c(c12)[C@H](CCl)CN3C(=O)/C=C/c1ccc(/C=C/C(=O)N2C[C@@H](CCl)c3c2cc(O)c2[nH]c(C(F)(F)F)c(C(=O)OC)c32)c2c(OC)ccc(OC)c12 = 0.00934
COC(=O)c1c[nH]c2c(O)cc3c(c12)[C@H](CCl)CN3C(=O)/C=C/c1ccc(/C=C/C(=O)N2C[C@@H](CCl)c3c2cc(O)c2[nH]cc(C(=O)OC)c32)cc1 = 0.00035

Next compound, IC50 to be filled in.
Qu. Item CCc1c(/C=C/C(=O)N2C[C@@H](CCl)c3c2cc(O)c2[nH]c(C(F)(F)F)c(C(=O)OC)c32)ccc(/C=C/C(=O)N2C[C@@H](CCl)c3c2cc(O)c2[nH]c(C(F)(F)F)c(C(=O)OC)c32)c1CC has what recorded IC50?
Ans. 0.0318

###

- Tested on: HeLa S3 cells
- TEST_METHOD_NOTES: HeLa Cell Growth Inhibition Activity (HeLa S3, MTT)
- Format: cell-based
- STATED_CONDITIONS: Homo sapiens, 72 hours exposure
- Description: HeLa Cell Growth Inhibition Activity: HeLa S3 cells were maintained as a monolayer culture in Eagle's minimal medium (Nissui Seiyaku K. K., Tokyo) containing […] glutamine, 100 μg/mL of kanamycin sulfate, and 10% inactivated fetal calt serum at 37° C. in a carbon dioxide incubator. The cells 1.8×10^3 were inoculated to a 96-well plate, and were exposed to the test compounds from the next day for 72 hours. […]
ENDPOINT_NAME: log10 IC50 (log10 of the value in ng/mL)
A difference of one corresponds to tenfold IC50; all values are log10 with IC50 in ng/mL.

Cc1c[nH]c2c(O)cc3c(c12)[C@H](CCl)CN3C(=O)/C=C/c1ccc(/C=C/C(=O)N2C[C@@H](CCl)c3c2cc(O)c2[nH]cc(C)c32)cc1 = -1.87
COC(=O)c1cc2c3c(cc(O)c2[nH]1)N(C(=O)/C=C/c1ccc(/C=C/C(=O)N2C[C@@H](CCl)c4c2cc(O)c2[nH]c(C(=O)OC)cc42)cc1)C[C@H]3CCl = -1.64
COC(=O)c1c(C(F)(F)F)[nH]c2c(O)cc3c(c12)[C@H](CCl)CN3C(=O)/C=C/c1ccc(/C=C/C(=O)N2C[C@@H](CCl)c3c2cc(O)c2[nH]c(C(F)(F)F)c(C(=O)OC)c32)c2c1OCCO2 = -2.56

Qu. GET /values?readout=log10 IC50&item= O=C(/C=C/c1ccc(/C=C/C(=O)N2C[C@@H](CCl)c3c2cc(O)c2[nH]c4ccccc4c32)cc1)N1C[C@@H](CCl)c2c1cc(O)c1[nH]c3ccccc3c21
Ans. -1.15

Qu. May I ask what log10 IC50 has been recorded for COC(=O)c1c(C)[nH]c2c(O)cc3c(c12)[C@H](CCl)CN3C(=O)/C=C/c1ccc(/C=C/C(=O)N2C[C@@H](CCl)c3c2cc(O)c2[nH]c(C)c(C(=O)OC)c32)cc1 ?
Ans. -3.34

Hey, just so you know, these numbers are from patent US5786486A.
